- System: RXF 393
- Run Description: NCI tumour cell line growth inhibition, 48 h
Activity calls are given as the source filed them. No stated cut-off is given here; in the data, active = GI50 up to about 1.1 µM and inactive = higher.
I'd appreciate it if you could supply GI50 values for the items below.

Given N#Cc1ccc(C(=O)/C=C/c2ccc(O)c(O)c2)cc1 , state its recorded GI50.
16.8 µM (inactive)

Given Cc1ccc(S(=O)(=O)N/N=C/C(=C/c2ccc(Cl)cc2)CC(/C=N/NS(=O)(=O)c2ccc(C)cc2)=C\c2ccc(Cl)cc2)cc1 , state its recorded GI50.
3.56 µM (inactive)

Given NCC(=O)N1CCN(c2nc(N3CCCC3)c3nc(Cl)c(NCc4ccccc4)nc3n2)CC1 , state its recorded GI50.
1.43 µM (inactive)

Given CC(C)OC(=O)c1cc(NC(=O)C(C)(C)C)c(F)cc1Cl , state its recorded GI50.
> 100 µM (inactive)

Given O=C1c2ccccc2C(Br)(Br)c2ccccc21 , state its recorded GI50.
18.2 µM (inactive)

Given CC(=O)NC1C(OCc2ccccc2)OC(CO)C(O)C1OCC(=O)N[C@@H](C)C(=O)N[C@H](CCC(=O)NCCNCCNc1c2ccccc2nc2cccc([N+](=O)[O-])c12)C(N)=O (some centres undefined) , state its recorded GI50.
36.4 µM (inactive)

Given Cc1ccc(S(=O)(=O)N/C(=C\C=C\c2ccccc2)C(=O)C(C)(C)C)cc1 , state its recorded GI50.
37.8 µM (inactive)

Given CC(C)[Si](OC1=C(C(=O)N(C)c2ccccc2Cl)CCCC1)(C(C)C)C(C)C , state its recorded GI50.
16.1 µM (inactive)

Given COc1cc2c(cc1O)-c1c(cnn1-c1ccc([N+](=O)[O-])cc1)CCC2 , state its recorded GI50.
50.8 µM (inactive)

---

- Tested on: COLO 205
- Run Description: NCI tumour cell line growth inhibition, 48 h
The source made the active and inactive calls. No stated cut-off is given here; in the data, active = GI50 up to about 1.1 µM and inactive = higher.
Assay Metric: GI50

Given COc1c2ccsc2c(OC)c2ccsc12 , state its recorded GI50.
> 100 µM (inactive)

Given CCCCCCCSCC1OC(n2cnc3c(N)ncnc32)C(O)C1O (configuration not stated) , state its recorded GI50.
14 µM (inactive)

Given CSc1nc(NC(C)C)c2c(n1)Sc1nc3ccccc3n1C2O (configuration not stated) , state its recorded GI50.
1.65 µM (inactive)

Given Cc1ccc(S(=O)(=O)N/C(=C\C=C\c2ccccc2)C(=O)C(C)(C)C)cc1 , state its recorded GI50.
> 100 µM (inactive)

Given COc1ccccc1Nc1nc(NNC(=O)Cc2ccccc2)nc(NNC(=O)c2ccncc2)n1 , state its recorded GI50.
> 10 µM (inactive)

Given CC1(C)O[C@H]2OC(CO)C(N=[N+]=[N-])[C@H]2O1 (some centres not stated) , state its recorded GI50.
> 100 µM (inactive)

Given N=C(N)NS(=O)(=O)c1ccc(NNc2c3ccccc3nc3c(C(=O)Nc4ccc(S(N)(=O)=O)cc4)cccc23)cc1 , state its recorded GI50.
31 µM (inactive)

Given CC1=C(C(=O)NCCc2ccccc2)CC(C(=O)NCCc2ccccc2)=C(C)N1 , state its recorded GI50.
> 100 µM (inactive)

Given Cc1cc(S(=O)(=O)Nc2nc(N)nc(N(C)C)n2)c(SCC(=O)O)cc1Cl , state its recorded GI50.
> 10 µM (inactive)

Given CC(=O)OC(Cc1c(O)c2c(C)cccc2oc1=O)C(C)(C)O (configuration not stated) , state its recorded GI50.
> 100 µM (inactive)

Given S=C(N/N=C/c1ccccc1)NC12CC3CC(CC(C3)C1)C2 , state its recorded GI50.
27 µM (inactive)

Given N=C(N)NS(=O)(=O)c1ccc(NC(=O)c2cccc3c(NNc4ccc(S(N)(=O)=O)cc4)c4ccccc4nc23)cc1 , state its recorded GI50.
> 100 µM (inactive)

Given COC(=N)c1csc(C2OC(CO)C(O)C2O)n1 (configuration not stated) , state its recorded GI50.
> 100 µM (inactive)

Given CC1OC(=O)c2ccccc2NC1=O (configuration not stated) , state its recorded GI50.
> 100 µM (inactive)

Given C=CC(C)(C)/C(=C\CO[Si](C(C)C)(C(C)C)C(C)C)C(=O)N(C)c1ccccc1I , state its recorded GI50.
16.4 µM (inactive)

Given NC(=O)NC(=O)c1ccc(NC(=O)CBr)cc1 , state its recorded GI50.
1.48 µM (inactive)

Given O=C(O)C(Cl)(Cl)Cl , state its recorded GI50.
> 100 µM (inactive)

Given COC(=O)[C@@H]1CN(C(=O)CCc2ccccc2)C(=O)N1C(=O)OCc1ccccc1 , state its recorded GI50.
> 100 µM (inactive)

Given Cc1nc2ccccc2n1Cc1ccc(NC(=S)Nc2ccccc2)cc1 , state its recorded GI50.
34.8 µM (inactive)

Given Cc1cc(O)c2c(c1O)C(=O)c1c(O)ccc(O)c1C2=O , state its recorded GI50.
> 100 µM (inactive)

Given Cc1ccc(C)c(COCCOCn2c(=O)[nH]c(=O)c3cc(Br)ccc32)c1 , state its recorded GI50.
> 100 µM (inactive)

Given CC(=O)OC12C3C4C1C1C2C3C41OC(C)=O (configuration not stated) , state its recorded GI50.
> 100 µM (inactive)

---

- Tested on: MDA-MB-231
- Run Description: NCI tumour cell line growth inhibition, 48 h
The source made the active and inactive calls. Rule as the data show it: active = GI50 up to about 1.1 µM and inactive = higher.
I'd appreciate it if you could supply GI50 values for the items below.

Given Cc1nc2ccccc2n1Cc1ccc(NC(=S)Nc2ccccc2)cc1 , state its recorded GI50.
36.4 µM (inactive)

Given O=S(=O)(O)c1ccc(NN(c2c(O)ccc3ccccc23)S(=O)(=O)O)cc1 , state its recorded GI50.
> 100 µM (inactive)

Given CSC1=C(SC)SC(=C2SC3=C(SC(=C4SCCS4)S3)S2)S1 , state its recorded GI50.
> 100 µM (inactive)

Given C=CC(C)(C)/C(=C\CO[Si](C(C)C)(C(C)C)C(C)C)C(=O)N(C)c1ccccc1I , state its recorded GI50.
13.3 µM (inactive)

Given N#Cc1c(NC(=O)C(F)(F)F)sc2c3c(=O)c4ccccc4c(=O)c=3oc3ccccc3c12 , state its recorded GI50.
24.3 µM (inactive)

---

- Test system: LXFL 529
- Run Description: NCI tumour cell line growth inhibition, 48 h
Activity calls are given as the source filed them. No stated cut-off is given here; in the data, active = GI50 up to about 1.1 µM and inactive = higher.
I'd appreciate it if you could supply GI50 values for the items below.

// lookup GI50 | system=LXFL 529 | key= CC1(C)C(=O)/C=C\C(=O)C(C)(C)C(=O)/C=C\C(=O)C(C)(C)C(=O)/C=C\C(=O)C(C)(C)C(=O)/C=C\C1=O
7.28 µM (inactive)

// lookup GI50 | system=LXFL 529 | key= CCCCCCCC1(c2ccc(N)cc2)CCC(=O)NC1=O (stereo not given)
29.3 µM (inactive)

// lookup GI50 | system=LXFL 529 | key= Cc1ccc2c(c1)C(c1cccc3ccccc13)OC2=O (stereo not given)
> 100 µM (inactive)

// lookup GI50 | system=LXFL 529 | key= CCN(CC)CCC(=O)O[C@H]1CC[C@H](CC(C)[C@H]2CC(=O)C(C)C=C(C)[C@H](OC(=O)CCN(CC)CC)C(OC)C(=O)[C@@H](C)CC(C)/C=C/C=C/C=C(C)C(OC)CC3CC[C@H](C)[C@](O)(O3)C(=O)C(=O)N3CCCCC3C(=O)O2)CC1OC (stereo not given in full)
< 0.01 µM (active)

// lookup GI50 | system=LXFL 529 | key= CN(C)CC1(Cc2ccccc2)CC/C(=C\c2ccccc2)C1=O (stereo not given)
37.2 µM (inactive)

// lookup GI50 | system=LXFL 529 | key= CP(=O)(CCSc1ccccc1)c1ccccc1 (stereo not given)
> 100 µM (inactive)

// lookup GI50 | system=LXFL 529 | key= CCOc1ccc(C2=C(Cl)c3cc(OC)c(OC)cc3C2Cl)cc1 (stereo not given)
26.8 µM (inactive)

// lookup GI50 | system=LXFL 529 | key= C[C@]12CCC(=O)CC1CCCC2=O (stereo not given in full)
> 100 µM (inactive)

// lookup GI50 | system=LXFL 529 | key= COC(=O)C1=C(OC)c2cc3c(cc2C(c2cc(OC)c(OC)c(OC)c2)C1C(=O)OC)OCO3 (stereo not given)
> 100 µM (inactive)

// lookup GI50 | system=LXFL 529 | key= CCOC(=O)C1=C(NC)OCC1=O
> 100 µM (inactive)

---

I'd appreciate it if you could supply GI50 values for the items below.
- Tested on: SK-OV-3
- Run Description: NCI tumour cell line growth inhibition, 48 h
Activity calls are given as the source filed them. Rule as the data show it: active = GI50 up to about 1.1 µM and inactive = higher.

Given CC(C)OC(=O)c1cc(NC(=O)C(C)(C)C)c(F)cc1Cl , state its recorded GI50.
> 100 µM (inactive)

Given CC(C)[Si](OC1=CCCCCC12C(=O)N(C)c1ccccc12)(C(C)C)C(C)C (configuration not stated) , state its recorded GI50.
20.5 µM (inactive)

Given O=c1cccccc1NCCCCCCNc1cccccc1=O , state its recorded GI50.
> 100 µM (inactive)

Given CC(=O)OC12C3C4C1C1C2C3C41OC(C)=O (configuration not stated) , state its recorded GI50.
> 100 µM (inactive)

Given S=C1Nc2cnc3ccccc3c2SC1c1ccccc1 (configuration not stated) , state its recorded GI50.
72.8 µM (inactive)

Given CN(C)CC1CCC(=C2CCCC2)C1=O (configuration not stated) , state its recorded GI50.
> 100 µM (inactive)

Given O=C(CSc1nnc(Cc2ccccc2)o1)Nc1ccc([N+](=O)[O-])cc1 , state its recorded GI50.
> 100 µM (inactive)

Given O=C(O)C(Cl)(Cl)Cl , state its recorded GI50.
> 100 µM (inactive)

Given CCC(c1ccc(N(C)C)cc1)C1NC(=S)NC1=O (configuration not stated) , state its recorded GI50.
> 100 µM (inactive)

Given NCC1OC(n2cnc3c(N)ncnc32)CC1O (configuration not stated) , state its recorded GI50.
> 100 µM (inactive)

Given O=C1c2cc3c(cc2CC12Cc1ccccc1C2)CCC3 , state its recorded GI50.
> 100 µM (inactive)

Given COC(=O)Cc1cccc2c(=O)c(S(=O)(=O)NC(=O)Nc3ccc(Cl)cc3)c(-c3ccccc3)oc12 , state its recorded GI50.
> 100 µM (inactive)

Given CCCNC(=O)c1cc(NC(=O)c2cc(NC(=O)CCS(=O)(=O)OC)cn2C)cn1C , state its recorded GI50.
9.55 µM (inactive)

Given Cc1ccccc1/N=C/c1ccc(N(CCC#N)S(=O)(=O)c2ccccc2)cc1 , state its recorded GI50.
> 100 µM (inactive)

Given CSC(C1c2ccccc2N(C)c2[nH]c(=O)n(C)c(=O)c21)S(=O)(=O)c1ccc(C)cc1 (configuration not stated) , state its recorded GI50.
> 100 µM (inactive)

Given CC(=O)C(C(=N)C#N)C(=O)Nc1ccccc1 (configuration not stated) , state its recorded GI50.
> 100 µM (inactive)

Given C=CC(C)(C)/C(=C\CO[Si](C(C)C)(C(C)C)C(C)C)C(=O)N(C)c1ccccc1I , state its recorded GI50.
16.3 µM (inactive)

Given CN(C)CCNS(=O)(=O)c1ccc(N)cc1 , state its recorded GI50.
> 100 µM (inactive)

Given COc1cc2ccc(C(=O)NCCCNC(=O)c3ccc4cc(OC)c(OC)cc4c3)cc2cc1OC , state its recorded GI50.
> 100 µM (inactive)

Given C[C@@H]1OC2(O)[C@@H]3CCCN3C(=O)N(Cc3ccccc3)N2C1=O (some centres not stated) , state its recorded GI50.
> 100 µM (inactive)

Given CC(=O)NC1C(OCc2ccccc2)OC(CO)C(O)C1OCC(=O)N[C@@H](C)C(=O)N[C@H](CCC(=O)NCCNCCNc1c2ccccc2nc2cccc([N+](=O)[O-])c12)C(N)=O (some centres not stated) , state its recorded GI50.
78.5 µM (inactive)

Given CCOC(=O)c1cn2c(n1)sc1cc(Cl)ccc12 , state its recorded GI50.
52 µM (inactive)

Recorded values, source ChEMBL document CHEMBL1201862.
